- ASSAY TARGET: T1, wild type monomeric full-length HIV-1 YU-2 gp120 (HIV-1 YU-2, UniProt P35961 32-498)
- T1 construct: domain: gp120; also called gp120YU-2; gp120 YU-2
- ASSAY METHOD TEXT: SPR competition: gp120 YU-2 with increasing peptide over immobilised 17b; competitor 17b
pIC50: −log10 of the molar value. Bridges are numbered along the chain shown (N, C = ends). Where no end group is shown, it is not given here. [ ]: non-standard residue; d: D form.

BINDER | pIC50
DNI[4‑(4-(4-(thiophen-2-yl)phenyl)-1H-1,2,3-triazol-1-yl)proline]WK-NH2 (lactam 1-6, also called Compound 29N-2) [cPT 36 (29N-2)] | ~7.25

Just for reference, patent US20220204565A1 is where these values come from.
